Experiment: recombinant UMI read abundance after kanamycin selection (control-corrected) (log10(CPM+1)); higher = more efficient recombination; extreme values may be limits of the assay; sequences stand for … in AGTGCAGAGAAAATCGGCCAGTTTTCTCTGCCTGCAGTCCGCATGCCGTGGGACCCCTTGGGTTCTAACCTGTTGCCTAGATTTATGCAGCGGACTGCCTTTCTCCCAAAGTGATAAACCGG…AGGTTGGTTTCACT; site = the 11-nt donor;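 further: IS621 bridge recombinase in Escherichia coli cells against a fixed T5 target plasmid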
Result type: recombinant UMI read abundance (log10)
Give your answer as a number; write no unit.

TCAATGACATGGACCGGTTTTCCCGGTAATCCGTATTTGGT (site TCAATGACTAC)
0.953
GATTCACCATGGACCGGTTTTCCCGGTAATCCGTATTTGCG (site GATTCACCTCG)
0.00637
CGTGGAACATGGACCGGTTTTCCCGGTAATCCGTATTTGCT (site CGTGGAACTAG)
2.18
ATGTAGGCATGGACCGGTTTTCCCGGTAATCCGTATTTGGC (site AAGTAGGCTGC)
1.22
TATTTGGCATGGACCGGTTTTCCCGGTAATCCGTATTTGCG (site TATTTGGCTCC)
0.0115
CTATGCACATGGACCGGTTTTCCCGGTAATCCGTATTTGTA (site TTATGCACTTA)
0.013

Give reported recombinant UMI read abundance (log10) value for CGACTAACATGGACCGGTTTTCCCGGTAATCCGTATTTGGA (site CGACTAACTTC)
1.74

Answer with the recorded recombinant UMI read abundance (log10) for the sequence listed here: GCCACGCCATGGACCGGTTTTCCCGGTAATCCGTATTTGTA (site TCCACGCCTTA)
0.00575

---

Experiment: recombinant UMI read abundance after kanamycin selection (control-corrected) (log10(CPM+1)); higher = more efficient recombination; extreme values may be limits of the assay; sequences stand for … in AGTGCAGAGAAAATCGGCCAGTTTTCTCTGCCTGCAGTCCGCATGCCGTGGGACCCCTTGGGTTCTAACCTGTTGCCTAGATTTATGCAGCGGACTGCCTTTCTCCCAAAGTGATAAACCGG…AGGTTGGTTTCACT; site = the 11-nt donor
Classification scheme (recombinant UMI read abundance (log10)): low: < 0.003; moderate: ≥ 0.003 and < 0.8; high: ≥ 0.8

Please indicate the class for CCTATAGCATGGACCGGTTTTCCCGGTAATCCGTATTTGAT (site CCTATAGCTAT) based on its recombinant UMI read abundance (log10).
moderate

Exercise: read the entry CCAAATACATGGACCGGTTTTCCCGGTAATCCGTATTTGGC (site CCTAATACTGC) and state which class it falls under.
low

Lab note: sort ACACAGCCATGGACCGGTTTTCCCGGTAATCCGTATTTGTC (site ACACAGCCTGA) into the matching recombinant UMI read abundance (log10) band.
low

Band of TTGTCGACATGGACCGGTTTTCCCGGTAATCCGTATTTGAC (site TTGTCGACTGT) ?
moderate

---

Test: recombinant UMI read abundance after kanamycin selection (control-corrected) (log10(CPM+1)); higher = more efficient recombination; extreme values may be limits of the assay; sequences stand for … in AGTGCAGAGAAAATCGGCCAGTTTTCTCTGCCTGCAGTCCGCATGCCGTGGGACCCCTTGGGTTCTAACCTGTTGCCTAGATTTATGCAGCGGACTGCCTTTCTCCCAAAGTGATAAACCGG…AGGTTGGTTTCACT; site = the 11-nt donor
I would appreciate it if you labelled entries 1 (yes) when recombinant UMI read abundance (log10) is 0.2 or higher, otherwise 0 (no).

CAAAATCCATGGACCGGTTTTCCCGGTAATCCGTATTTGTA (site CAAAATCCTTA)
1 (yes)
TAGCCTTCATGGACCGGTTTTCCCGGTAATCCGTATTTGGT (site TAGCCTGCTAC)
0 (no)
ATCTGATCATGGACCGGTTTTCCCGGTAATCCGTATTTGCT (site ATCTGATCTAG)
1 (yes)
ACGAAGACATGGACCGGTTTTCCCGGTAATCCGTATTTGCA (site ATGAAGACTTG)
1 (yes)
GTAGTGGCATGGACCGGTTTTCCCGGTAATCCGTATTTGGT (site GGAGTGGCTAC)
0 (no)
ATAATGCCATGGACCGGTTTTCCCGGTAATCCGTATTTGAC (site ATAAGGCCTGT)
0 (no)

Check if recombinant UMI read abundance (log10) >= 0.2 (inclusive). Item: CCCTGATCATGGACCGGTTTTCCCGGTAATCCGTATTTGAG (site CCCTGATCTCT)
1 (yes)

Is it the case that TCAAAGACATGGACCGGTTTTCCCGGTAATCCGTATTTGCG (site TCATAGACTCG) has recombinant UMI read abundance (log10) reaching or exceeding 0.2?
1 (yes)

Say whether GGCAATCCATGGACCGGTTTTCCCGGTAATCCGTATTTGCA (site GGCAATCCTTC) shows recombinant UMI read abundance (log10) of 0.2 or more.
0 (no)
